tgt: Protein farnesyltransferase (Homo sapiens, UniProt P49354+P49356)
test.name: Inhibitory activity in COS cell Ha-Ras processing assay
Type: functional, cell-based, Chlorocebus aethiops
observed.property: pIC50
Please note pIC50 is a logarithmic value: minus log10 of concentration in mol/L. Answer with that number alone.

> print(dat)
                                   molecule                                       tgt  test.value
1  O=C(NCc1cccnc1)C1CCCN(C2c3ccc(Cl)cc3CCc3cc(Br)cnc32)C1 (configuration not stated)  Protein farnesyltransferase (Homo sapiens, UniProt P49354+P49356)        5.70

Next up:
Suppose we examine the molecule O=C(CC1CN(C2c3ccc(Cl)cc3CCc3cc(Br)cnc32)CCN1C(=O)CCc1ccccc1)NCc1cccnc1 (configuration not stated) ; what pIC50 value has been reported? 5.70

###

tgt: Protein farnesyltransferase (Homo sapiens, UniProt P49354+P49356)
test.name: Inhibitory activity against human farnesyltransferase
Assay type: protein-complex assay
Measured IC50, listed per entry.
Just the number please, in nM, no unit attached.

> print(dat)
                                   compound  endpoint.unit  test.value
1  O=C(NCc1cccnc1)C1CN(C2c3ccc(Cl)cc3CCc3cc(Br)cnc32)CCN1C(=O)CCc1ccccc1 (stereo unspecified)             nM          30

Look up IC50 for this compound: CNC(=O)C1CN(C2c3ccc(Cl)cc3CCc3cc(Br)cnc32)CCN1C(=O)Cc1ccc(Cl)cc1 (stereo unspecified) 100

# query: IC50 of entry O=C(CC1CN(C2c3ccc(Cl)cc3CCc3cc(Br)cnc32)CCN1C(=O)Cc1ccncc1)NC1CC1 (stereo unspecified) 70

Any idea what its IC50 is? The compound is O=C(CC1CN(C2c3ccc(Cl)cc3CCc3cc(Br)cnc32)CCN1C(=O)CCc1ccccc1)NCc1cccnc1 (stereo unspecified) 960

Looking for the measured IC50 of O=C(NCC1CC1)C1CN(C2c3ccc(Cl)cc3CCc3cc(Br)cnc32)CCN1C(=O)Cc1ccncc1 (stereo unspecified) , can you help? 50

Using the record for O=C(NCc1cccnc1)C1CCCN(C2c3ccc(Cl)cc3CCc3cc(Br)cnc32)C1 (stereo unspecified) , report its IC50. 120
